Origin of measurements: patent US20120316071A1

TARGET OR SYSTEM: rHuman EGF R/Fc Chimera (human, UniProt P00533 25-645)
METHOD DESCRIPTION: ECL multispot (MSD) binding assay; antigen spotted on plate, Fab in solution;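 note: purified Fab bound for 1 h at 20 °C, detected with a TAG-labelled antibody, electrochemiluminescence compared with each well's blank, signal-to-blank ratio of at least 4 scored as hit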
TEST READOUT: ECL signal
// print number alone

Answer with reported ECL signal of Fab VH1-46_IGHD6-6*01_IGHJ1*01 S102A/S103P/S104F/H111F (APFF) & L6_IGKJ1*01 S92V (Fab, V domains shown, Tested as Fab (CH1 with His6/Flag tags from Plasmid A; kappa CL from Plasmid C); also called APFF / S92V) VH: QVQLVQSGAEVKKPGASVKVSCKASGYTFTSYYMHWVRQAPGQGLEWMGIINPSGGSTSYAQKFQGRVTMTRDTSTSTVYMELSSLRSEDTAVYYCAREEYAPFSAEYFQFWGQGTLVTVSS VL: EIVLTQSPATLSLSPGERATLSCRASQSVSSYLAWYQQKPGQAPRLLIYDASNRATGIPARFSGSGSGTDFTLTISSLEPEDFAVYYCQQRVNWPPWTFGQGTKVEIKR
305

Answer with reported ECL signal of Fab VH1-46_IGHD6-6*01_IGHJ1*01 S102A/S103P/S104F/H111F (APFF) & L6_IGKJ1*01 S92C (Fab, V domains shown, Tested as Fab made in E. coli: VH cloned into Plasmid A (CH1, His6 and Flag tags), kappa VL into Plasmid C (kappa CL); also called APFF / S92C) VH: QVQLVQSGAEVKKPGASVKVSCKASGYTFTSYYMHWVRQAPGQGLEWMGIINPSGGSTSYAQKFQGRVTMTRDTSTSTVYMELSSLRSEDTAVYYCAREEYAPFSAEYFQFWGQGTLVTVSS VL: EIVLTQSPATLSLSPGERATLSCRASQSVSSYLAWYQQKPGQAPRLLIYDASNRATGIPARFSGSGSGTDFTLTISSLEPEDFAVYYCQQRCNWPPWTFGQGTKVEIKR
588

Answer with reported ECL signal of Fab VH1-46_IGHD6-6*01_IGHJ1*01 S102A/S103P/S104F/H111F (APFF) & L6_IGKJ1*01 S92M (Fab, V domains shown, Tested as Fab (CH1 with His6/Flag tags from Plasmid A; kappa CL from Plasmid C); also called APFF / S92M) VH: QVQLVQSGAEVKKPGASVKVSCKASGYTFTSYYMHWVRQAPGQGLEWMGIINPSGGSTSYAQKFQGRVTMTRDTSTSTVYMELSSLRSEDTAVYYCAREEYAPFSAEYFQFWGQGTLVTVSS VL: EIVLTQSPATLSLSPGERATLSCRASQSVSSYLAWYQQKPGQAPRLLIYDASNRATGIPARFSGSGSGTDFTLTISSLEPEDFAVYYCQQRMNWPPWTFGQGTKVEIKR
367

Answer with reported ECL signal of Fab VH1-46_IGHD6-6*01_IGHJ1*01 S102A/S103P/S104F/H111F (APFF) & L6_IGKJ1*01 S92N (Fab, V domains shown, Tested as Fab (CH1 with His6/Flag tags from Plasmid A; kappa CL from Plasmid C); also called APFF / S92N) VH: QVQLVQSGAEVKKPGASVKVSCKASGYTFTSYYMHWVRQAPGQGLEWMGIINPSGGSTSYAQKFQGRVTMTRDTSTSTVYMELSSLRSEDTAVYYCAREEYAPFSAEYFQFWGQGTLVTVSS VL: EIVLTQSPATLSLSPGERATLSCRASQSVSSYLAWYQQKPGQAPRLLIYDASNRATGIPARFSGSGSGTDFTLTISSLEPEDFAVYYCQQRNNWPPWTFGQGTKVEIKR
293
